All figures here come from ChEMBL document CHEMBL1145498.

target: Serine/threonine-protein kinase VRK3 (Homo sapiens) (UniProt Q8IV63)
Sequence (Q8IV63 whole entry): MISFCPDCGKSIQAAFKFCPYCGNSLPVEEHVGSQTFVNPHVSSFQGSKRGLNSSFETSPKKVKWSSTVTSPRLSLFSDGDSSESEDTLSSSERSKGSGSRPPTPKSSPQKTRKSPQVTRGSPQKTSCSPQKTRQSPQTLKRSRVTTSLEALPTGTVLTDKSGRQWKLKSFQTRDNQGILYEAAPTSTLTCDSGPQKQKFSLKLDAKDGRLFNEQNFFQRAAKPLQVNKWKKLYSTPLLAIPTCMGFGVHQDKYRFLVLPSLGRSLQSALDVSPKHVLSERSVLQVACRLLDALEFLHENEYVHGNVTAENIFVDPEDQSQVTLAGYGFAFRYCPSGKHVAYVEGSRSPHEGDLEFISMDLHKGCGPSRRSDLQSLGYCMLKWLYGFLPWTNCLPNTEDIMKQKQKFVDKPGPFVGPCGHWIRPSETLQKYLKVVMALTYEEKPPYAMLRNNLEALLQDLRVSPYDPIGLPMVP
RESULT_TYPE: ΔTm (°C)

1) CN(C)CCCn1cc(C2=C(c3c[nH]c4ccccc34)C(=O)NC2=O)c2ccccc21    0
2) N#CC(C#N)=Cc1ccc(O)c(O)c1    -0.2
3) CC(C)(C)n1nc(-c2cccc3ccccc23)c2c(N)ncnc21    0.2
4) O=C1C(Cl)=C(N2C(=O)CCC2=O)C(=O)c2ccccc21    -0.7
5) COc1cc(/C=C/C(=O)CC(=O)/C=C/c2ccc(O)c(OC)c2)ccc1O    1.3
6) O=c1cc(N2CCOCC2)oc2c(-c3ccccc3)cccc12    0.6
7) O=C1NC(=O)C(c2cn(CCCn3ccnc3)c3ccccc23)=C1Nc1ccccc1    1.6
8) CN(C)S(=O)(=O)c1ccc2c(c1)/C(=C/c1cc3c([nH]1)CCCC3)C(=O)N2    1.5
9) O=C1Cc2c([nH]c3ccc(Br)cc23)-c2ccccc2N1    -0.2
10) COc1ccc2c(c[n+](C)c3c4cc5c(cc4ccc23)OCO5)c1OC [CHELERYTHRINE CHLORIDE]    -0.6
11) CN(C)c1ncnc2nc[nH]c12    -1
12) C[C@@H](N)[C@H]1CC[C@H](C(=O)Nc2ccncc2)CC1    0.2
13) COc1cccc(-c2cc(=O)c3ccccc3o2)c1N    0.6
14) CN(C)c1ccc(CC2C(=O)Nc3ccccc32)cc1 (stereo unspecified)    0.1
15) O=C1Nc2ccc(I)cc2/C1=C\c1cc(Br)c(O)c(Br)c1    -1.6
16) NC(=O)c1ccc(-c2nc(-c3ccc4c(c3)OCCO4)c(-c3ccccn3)[nH]2)cc1    0.3
17) CCN1/C(=C/C(C)=O)Sc2ccc(OC)cc21    0.1
18) CC(C)n1cnc2c(NCc3ccccc3)nc(NCCCO)nc21    -0.3
19) Cc1ccc(NC(=O)c2cccc(N(C)C)c2)cc1NC(=O)c1ccc(O)cc1    -0.1
20) O=c1cc(-c2ccc(O)cc2)oc2cc(O)cc(O)c12    0.2
21) COC1=C2C[C@@H](C)C[C@H](OC)[C@H](O)[C@@H](C)/C=C(\C)[C@H](OC(N)=O)[C@@H](OC)/C=C\C=C(/C)C(=O)NC(=CC1=O)C2=O    -0.7
22) Nc1n[nH]c2nc3ccccc3nc12    0.4
23) O=c1sn(Cc2ccccc2)c(=S)n1Cc1ccccc1    0.9
24) CC(=O)O/N=C1/C(=C2/C(=O)Nc3cc(Br)ccc32)Nc2ccccc21    0.7
25) CC(C)(C)c1nc2c3ccc(F)cc3c3c(=O)[nH]ccc3c2[nH]1    0.2
26) N#CCCc1ccc2c(c1)-c1[nH]c3ccc([N+](=O)[O-])cc3c1CC(=O)N2    0.6
27) NC1=N/C(=C2/CCNC(=O)c3[nH]ccc32)C(=O)N1    0.5
28) CCOC(=O)c1c(C)[nH]c(/C=C2\C(=O)Nc3ccccc32)c1C    -2.2
29) CC(C)n1cnc2c(NCc3ccccc3O)nc(NCCCO)nc21    0.1
30) N#C/C(=C\c1ccc(O)c(O)c1)C(=O)NCc1ccccc1    -0.2
31) CN(C)C[C@@H]1CCn2cc(c3ccccc32)C2=C(C(=O)NC2=O)c2cn(c3ccccc23)CCO1    -0.3
32) O=C(O)c1cc(NCc2cc(O)ccc2O)ccc1O    0.1
33) O=C1Nc2ccccc2/C1=C/c1cnc[nH]1    0.1
34) COc1cc(C[C@H]2C(=O)OC[C@@H]2Cc2ccc(OC)c(OC)c2)ccc1O    0.4
35) C/C(O)=C(\C#N)C(=O)Nc1cc(Br)ccc1Br    -0.3
36) O=C(O)Cc1ccc(O)c([N+](=O)[O-])c1    -0.3
37) C[S+]([O-])c1ccc(CSc2nc(-c3ccc(F)cc3)c(-c3ccncc3)[nH]2)cc1 (stereo unspecified)    -0.8
38) NC1=NC(=O)/C(=C2\CCNC(=O)c3[nH]c(Br)cc32)N1    0.3
39) COc1cc2ncnc(Nc3cccc(Br)c3)c2cc1OC    0.3
40) Cn1cc(C2=C(c3cn(CCCN)c4ccccc34)C(=O)NC2=O)c2ccccc21    0.9
41) Cn1cc(C2=C(c3cn(CCCSC(=N)N)c4ccccc34)C(=O)NC2=O)c2ccccc21    0.8

====

biological target: Calcium/calmodulin-dependent protein kinase type II subunit alpha (Homo sapiens) (UniProt Q9UQM7)
Sequence (Q9UQM7 whole entry): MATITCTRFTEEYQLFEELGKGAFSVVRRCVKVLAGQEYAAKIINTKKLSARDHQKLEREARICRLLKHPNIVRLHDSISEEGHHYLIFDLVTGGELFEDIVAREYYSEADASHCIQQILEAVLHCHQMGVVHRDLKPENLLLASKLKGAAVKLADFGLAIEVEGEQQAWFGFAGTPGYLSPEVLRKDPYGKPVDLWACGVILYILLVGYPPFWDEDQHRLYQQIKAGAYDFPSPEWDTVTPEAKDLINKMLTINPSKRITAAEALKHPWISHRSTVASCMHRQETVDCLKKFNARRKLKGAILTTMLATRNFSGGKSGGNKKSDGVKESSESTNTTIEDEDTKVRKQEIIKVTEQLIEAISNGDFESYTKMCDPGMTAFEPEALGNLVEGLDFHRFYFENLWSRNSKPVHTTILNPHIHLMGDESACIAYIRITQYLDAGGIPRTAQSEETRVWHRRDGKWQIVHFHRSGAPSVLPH
Lab note: compare ΔTm against 2 °C. Equal or greater, write fulfilled. Smaller, write not fulfilled.

1) N=C(N)NCCNS(=O)(=O)c1cccc2cnccc12    not fulfilled
2) Cn1cc(/C=C2/C(=O)Nc3ccc(S(N)(=O)=O)cc32)c2ccccc21    fulfilled
3) NC(=O)c1ccc2[nH]c(-c3ccc(Oc4ccc(Cl)cc4)cc3)nc2c1    not fulfilled
4) COc1nccc(-c2c(-c3ccc(F)cc3)ncn2[C@H]2CC[C@H](O)CC2)n1    not fulfilled
5) CN[C@@H]1CC2O[C@@](C)([C@@H]1OC)n1c3ccccc3c3c4c(c5c6ccccc6n2c5c31)C(=O)NC4    fulfilled
6) COc1cc(C[C@H]2C(=O)OC[C@@H]2Cc2ccc(OC)c(OC)c2)ccc1O    not fulfilled
7) CC(C)n1cnc2c(NCc3ccccc3)nc(NCCCO)nc21    not fulfilled

====

molecular target: Casein kinase II subunit alpha (Homo sapiens, UniProt P68400); test: Inhibition of CK2
Sequence (P68400 whole entry): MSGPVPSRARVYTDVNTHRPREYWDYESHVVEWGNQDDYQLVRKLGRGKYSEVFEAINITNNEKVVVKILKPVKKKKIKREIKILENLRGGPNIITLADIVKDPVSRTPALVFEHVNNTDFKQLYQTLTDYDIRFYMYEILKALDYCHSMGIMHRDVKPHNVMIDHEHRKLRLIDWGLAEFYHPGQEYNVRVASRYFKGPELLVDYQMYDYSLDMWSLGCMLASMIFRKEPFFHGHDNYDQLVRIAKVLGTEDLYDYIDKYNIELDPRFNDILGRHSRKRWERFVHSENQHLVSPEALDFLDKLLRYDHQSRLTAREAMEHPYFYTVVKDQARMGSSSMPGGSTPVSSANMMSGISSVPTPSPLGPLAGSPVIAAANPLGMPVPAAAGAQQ
RESULT_TYPE: IC50

1. CCCCc1c(-c2ccc(O)cc2)[nH]c2nccnc12 [ALOISINE A]    ≥ 100 µM

====

// ΔTm collected for Mitogen-activated protein kinase 6 (Homo sapiens) (UniProt Q16659)
RESULT_TYPE: ΔTm (°C)

1. Brc1c(Br)c(Br)c2[nH]nnc2c1Br    -0.2
2. CC(C)(C)c1nc2c3ccc(F)cc3c3c(=O)[nH]ccc3c2[nH]1    0.2
3. CCOC(=O)c1c(C)[nH]c(/C=C2\C(=O)Nc3ccccc32)c1C    -0.1
4. Cc1ccc(NC(=O)c2ccc(CN3CCN(C)CC3)cc2)cc1Nc1nccc(-c2cccnc2)n1    0.5
5. CC(C)n1cnc2c(NCc3ccccc3)nc(NCCCO)nc21    -0.3

====

Target: Dual specificity mitogen-activated protein kinase kinase 6 (Homo sapiens)
Sequence (whole entry): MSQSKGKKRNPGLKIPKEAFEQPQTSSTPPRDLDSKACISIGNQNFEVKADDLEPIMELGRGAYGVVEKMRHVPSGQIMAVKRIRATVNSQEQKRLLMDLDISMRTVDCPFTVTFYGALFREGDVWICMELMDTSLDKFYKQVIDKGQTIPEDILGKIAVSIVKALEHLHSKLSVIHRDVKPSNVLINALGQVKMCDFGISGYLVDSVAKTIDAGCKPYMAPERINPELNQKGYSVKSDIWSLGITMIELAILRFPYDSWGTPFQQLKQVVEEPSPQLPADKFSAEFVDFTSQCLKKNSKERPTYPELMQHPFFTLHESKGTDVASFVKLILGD
Classes based on ΔTm: A = under 0.2 °C, B = from 0.2 °C up to 2 °C, C = 2 °C and over

1) COc1ccc2c(c1)/C(=C/c1cnc[nH]1)C(=O)N2    C
2) O=C(O)c1cc(N(Cc2ccccc2O)Cc2cc(O)ccc2O)ccc1O    A
3) O=c1sn(Cc2ccccc2)c(=S)n1Cc1ccccc1    A
4) Cc1nc(N)sc1-c1ccnc(Nc2cccc([N+](=O)[O-])c2)n1    B
5) NCCNc1ncc(C(N)=O)c(Nc2cccc(C(F)(F)F)c2)n1    B
6) COc1ccc(COc2ccc(Cc3cnc(N)nc3N)cc2OC)cc1    A
7) Cc1cc(C=C2C(=O)C=CC2=O)cc(C)c1O    C
8) CC(C)(C)c1nc2c3ccc(F)cc3c3c(=O)[nH]ccc3c2[nH]1    C
9) NC1=N/C(=C2/CCNC(=O)c3[nH]ccc32)C(=O)N1    B
10) O=C1NC(=O)C(c2c[nH]c3ccccc23)=C1c1c[nH]c2ccccc12    B
11) COc1cccc(-c2cc(=O)c3ccccc3o2)c1N    A
12) O=C1Nc2ccc(I)cc2/C1=C\c1cc(Br)c(O)c(Br)c1    B
13) CC(C)(C)n1nc(-c2cccc3ccccc23)c2c(N)ncnc21    C
14) Cc1cc(Nc2nc(-c3ccccc3)nc3ccccc23)n[nH]1    C
15) N#CCCc1ccc2c(c1)-c1[nH]c3ccc([N+](=O)[O-])cc3c1CC(=O)N2    B
16) CC(C)[C@H](CO)Nc1nc(Nc2cc(N)cc(Cl)c2)c2ncn(C(C)C)c2n1    B
17) Oc1cccc(-c2nc(N3CCOCC3)c3oc4ncccc4c3n2)c1    A
18) O=Nc1c(-c2c(O)[nH]c3ccccc23)[nH]c2ccccc12    C
19) C[C@@H](N)[C@H]1CC[C@H](C(=O)Nc2ccncc2)CC1    A
20) O=c1c(-c2ccc(O)cc2)coc2cc(O)cc(O)c12    B
21) NC1=NC(=O)/C(=C2\CCNC(=O)c3[nH]c(Br)cc32)N1    B
22) CSc1nc(-c2ccc(F)cc2)c(-c2ccnc(NC(C)c3ccccc3)c2)[nH]1 (racemic)    B
23) CC(C)(C)n1nc(-c2ccc(Cl)cc2)c2c(N)ncnc21    C
24) CCOc1cc(/C=C(\C#N)C(N)=O)cc(CSc2ccccc2)c1O    B
